src = patent US4728725A

target.entity: angiotensin conversion enzyme (Oryctolagus cuniculus, UniProt P12822)
Construct: with the enzyme isolated from rabbit lungs
Sequence (P12822 34-1310): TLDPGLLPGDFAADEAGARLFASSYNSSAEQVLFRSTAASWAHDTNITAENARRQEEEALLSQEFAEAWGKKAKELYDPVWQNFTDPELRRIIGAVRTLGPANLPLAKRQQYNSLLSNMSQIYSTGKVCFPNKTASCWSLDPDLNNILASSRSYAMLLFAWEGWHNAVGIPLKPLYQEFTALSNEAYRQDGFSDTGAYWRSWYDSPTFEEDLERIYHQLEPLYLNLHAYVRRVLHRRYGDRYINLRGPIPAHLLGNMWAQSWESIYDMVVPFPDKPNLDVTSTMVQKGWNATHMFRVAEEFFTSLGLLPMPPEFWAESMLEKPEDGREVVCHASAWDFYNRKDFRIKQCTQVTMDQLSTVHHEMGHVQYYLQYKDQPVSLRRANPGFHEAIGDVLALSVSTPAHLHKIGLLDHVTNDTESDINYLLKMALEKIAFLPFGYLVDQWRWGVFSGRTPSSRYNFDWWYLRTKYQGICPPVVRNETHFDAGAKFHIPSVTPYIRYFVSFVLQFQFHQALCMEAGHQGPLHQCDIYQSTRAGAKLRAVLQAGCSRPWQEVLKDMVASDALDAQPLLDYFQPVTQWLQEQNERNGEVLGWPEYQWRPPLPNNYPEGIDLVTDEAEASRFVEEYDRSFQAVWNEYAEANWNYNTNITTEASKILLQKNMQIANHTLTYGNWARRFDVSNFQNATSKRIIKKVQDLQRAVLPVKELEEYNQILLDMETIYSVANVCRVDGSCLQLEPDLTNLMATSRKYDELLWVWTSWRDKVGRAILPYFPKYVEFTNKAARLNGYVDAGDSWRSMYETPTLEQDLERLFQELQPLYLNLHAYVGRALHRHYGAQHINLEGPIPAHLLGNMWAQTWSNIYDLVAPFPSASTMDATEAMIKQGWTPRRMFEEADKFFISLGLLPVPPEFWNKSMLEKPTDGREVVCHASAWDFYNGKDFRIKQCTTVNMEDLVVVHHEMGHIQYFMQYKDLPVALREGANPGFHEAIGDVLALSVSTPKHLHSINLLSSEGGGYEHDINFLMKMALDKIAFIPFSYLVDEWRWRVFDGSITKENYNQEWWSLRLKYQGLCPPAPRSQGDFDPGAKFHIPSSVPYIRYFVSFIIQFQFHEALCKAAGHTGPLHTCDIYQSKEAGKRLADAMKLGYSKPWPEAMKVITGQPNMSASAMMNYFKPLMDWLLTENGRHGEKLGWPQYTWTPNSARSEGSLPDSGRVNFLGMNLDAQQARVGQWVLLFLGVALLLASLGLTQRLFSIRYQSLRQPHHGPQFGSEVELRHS
assay.info: Inhibition of angiotensin conversion enzyme in vitro (method of Cushman and Cheung)
conditions.used: enzyme isolated from rabbit lungs; read-out: I50
recorded.endpoint: IC50 (µM)
Value expressed in µM; do not type the unit.

# lookup: IC50 of `C[C@@H](C(=O)N[C@H](Cc1ccccc1)C(=O)N[C@H](CCCCN)C(=O)N[C@@H]1CCC(=O)N1)C(=O)N1C[C@@H](Sc2ccccc2)C[C@H]1C(=O)O`
7.5
